self-cleavage values, listed per item
B1: CPEB3 Ribozyme (parent)
chain: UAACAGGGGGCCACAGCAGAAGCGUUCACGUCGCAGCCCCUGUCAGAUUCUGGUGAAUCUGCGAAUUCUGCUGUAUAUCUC

Variants of: B1
assay-details: self-cleavage, relative activity (ratio to wild type); higher = more cleavage; in vitro, sequencing
Keep the answer to the number alone.

Solved entries (count: 4):
> print(dat)
                            record.sequence  measured
1  UAACAGGGGGCCACAGCCGAAGCGUUCACGUCGCAGCCCCUGUCAGAUUCUGGCGAAUCUGCGAAUUCUGCUGUAUAUCUC [A18C U54C]      0.32
2  UAACAGGGGGCCACAGCAGAAGCGUUCACGUCGCAGCCCCUGUCAGAUUCUGGUGAAUCUGCGAAUUCUGCUGGGUAUCUC [U74G A75G]      1.26
3  UAACAGGGGGCCACAGCAGAUGCGUUCACGUCGCAGCCCCUGUCAGAUUCUGGUGAAUCUGCGAAUUCUGCUGUAUAUCCC [A21U U80C]      0.53
4  UAACAGGGGGCCACAGCAGAAGCGUUCACGUCGCAGCCCCUGUCAGAUUCUGGUGAAUCUGCGACUUCUGCCGUAUAUCUC [A65C U72C]      0.35

Attention now shifts to the item below.
self-cleavage recorded for this variant, UAACAGGGGGCCACAGCAGAAGCGUUCACGUCGCAGCCCCUGUCAGAUUCUGGUGAAUCAGCGAAUUCUGCUGUAUAUUUC [U60A C79U] , is 0.69
